# Plant response rating, Velvetleaf values compiled below
- Tested on: velvetleaf (Abutilon theophrasti)
- assay_overview: Test B pre/postemergence
- Type: in vivo
- condition_context: Preemergence, 62 g ai/ha; scale 0 to 100, 0 no effect, 100 complete control
Answer with a bare number; do not write a unit.

Sample answers from the record:
• CCCOC(=O)c1nc(C2CC2)nc(N)c1Cl = 80
• Nc1nc(C2CC2)nc(C(=O)O)c1Cl = 90
• Nc1nc(-c2ccc(Cl)cc2)nc(C(=O)[O-])c1Cl.[Na+] = 70

Now turn to the next molecule.
Specify measured Plant response rating, Velvetleaf for "Nc1nc(-c2ccc(Cl)cc2)nc(C(=O)O)c1Br" .
70

###

# Plant response rating, Ragweed values compiled below
- Tested on: common ragweed (Ambrosia elatior)
- assay_overview: Test C pre/postemergence
- Format: in vivo
- condition_context: Preemergence, 250 g ai/ha; scale 0 to 100
Answer with a bare number; do not write a unit.

Sample answers from the record:
* CNN=Cc1nc(C2CC2)nc(N)c1Br | 100
* CCOC(=O)Cc1nc(C2CC2)nc(N=CN(C)C)c1Br | 70
* CC(C)COC(=O)c1nc(C2CC2)nc(N)c1Br | 100

For common ragweed (Ambrosia elatior), give the measured Plant response rating, Ragweed of the entry CCOC(=O)C(Cl)c1nc(C2CC2)nc(N)c1Br (stereo not shown)
60

###

- Test system: kochia (Kochia scoparia)
- assay_overview: Test C pre/postemergence
- Assay type: in vivo
- condition_context: Bassia scoparia, post-emergence, Postemergence, 250 g ai/ha; scale 0 to 100; read-out: Plant response rating, Kochia
parameter_measured: pest or weed control at 250 g/ha (%)
Give the value in % but do not write % after it.

Sample answers from the record:
- Nc1nc(C2CC2)nc(C(=O)OCc2ccccc2)c1Br: 100
- Nc1nc(C2CC2)nc(C(=O)OCc2ccccc2)c1Cl: 95
- CCOC(=O)c1nc(-c2ccc(Cl)cc2)nc(N)c1Cl: 90
- COC(=O)c1nc(C2CC2)nc(N)c1Cl: 100
- COC(=O)c1nc(C2CC2)nc(N)c1Br: 100

Now turn to the next molecule.
Specify measured pest or weed control at 250 g/ha for "CCOC(=O)c1nc(C2CC2)nc(N)c1Cl" .
100

###

- System: giant foxtail (Setaria faberi)
- assay_overview: Test A pre/postemergence
- Format: in vivo
- condition_context: Postemergence, 500 g ai/ha; 0 to 100 scale (0 no effect, 100 complete control)
# Plant response rating, Foxtail, Giant values compiled below
Answer with a bare number; do not write a unit.

Sample answers from the record:
* COC(=O)c1nc(-c2ccc(Cl)cc2)nc(N)c1Br | 10
* CCOC(=O)c1nc(-c2cc(Br)cc(OC)c2)nc(N)c1Cl | 0
* CCOC(OCC)c1nc(-c2ccc(I)cc2)nc(N)c1Cl | 0
* CCOC(=O)COc1nc(-c2ccc(Cl)cc2)nc(N)c1Cl | 0
* Cc1ccc(-c2nc(N)c(Br)c(C(=O)O)n2)cc1 | 45

Specify measured Plant response rating, Foxtail, Giant for "Nc1nc(-c2ccc(Cl)cc2)nc(C(=O)[O-])c1Cl.[Na+]" .
90

Specify measured Plant response rating, Foxtail, Giant for "COC(=O)c1nc(-c2ccc(C)cc2)nc(N)c1Br" .
0

Specify measured Plant response rating, Foxtail, Giant for "CNc1nc(-c2ccc(Cl)cc2)nc(C(=O)OC)c1Cl" .
0

Specify measured Plant response rating, Foxtail, Giant for "CCOC(=O)c1nc(-c2cccc(Cl)c2)nc(N)c1Cl" .
0

Specify measured Plant response rating, Foxtail, Giant for "COC(=O)c1nc(-c2ccc(SC)cc2)nc(N)c1Cl" .
0

###

- System: cocklebur (Xanthium strumarium)
- assay_overview: Test B pre/postemergence
- Type: in vivo
- condition_context: Xanthium strumarium, post-emergence, Postemergence, 500 g ai/ha; scale 0 to 100; read-out: Plant response rating, Cocklebur
# pest or weed control at 500 g/ha values compiled below
Give the value in % but do not write % after it.

Sample answers from the record:
• CCOC(=O)c1nc(C2CC2)nc(NN)c1Br = 90
• COC(=O)c1nc(C2CC2)nc(N)c1F = 90
• COC(=O)c1nc(C2CC2)nc(N)c1Br = 100
• CCOC(=O)c1nc(-c2ccccc2)nc(N)c1Br = 70

Now turn to the next compound.
Specify measured pest or weed control at 500 g/ha for "Nc1nc(C2CC2)nc(C=O)c1F" .
70

###

- Tested on: velvetleaf (Abutilon theophrasti)
- assay_overview: Test B pre/postemergence
- Format: in vivo
- condition_context: Abutilon theophrasti, post-emergence, Postemergence, 500 g ai/ha; scale 0 to 100; read-out: Plant response rating, Velvetleaf
- Experimental: […] At the same time, plants selected from these crop and weed species and also blackgrass (Alopecurus myosuroides) and wild oat (Avena fatua) were treated with postemergence applications of test chemicals formulated in the same manner. […] Treated plants and controls were maintained in a greenhouse for 13 to 15 days, after which time all species were compared to controls and visually evaluated. […]
# pest or weed control at 500 g/ha values compiled below
Give the value in % but do not write % after it.

Sample answers from the record:
* COC(=O)c1nc(C2CC2)nc(NO)c1Br | 90
* CCOC(=O)c1nc(C2CC2)nc(NN)c1Br | 80

Now turn to the next compound.
Specify measured pest or weed control at 500 g/ha for "Nc1nc(C2CC2)nc(C(=O)OCc2ccccc2)c1Br" .
100

###

- System: barnyardgrass (Echinochloa crus-galli)
- assay_overview: Test B flooded paddy test
- Assay type: in vivo
- condition_context: Echinochloa crus-galli, Flood, 1000 g ai/ha; scale 0 (no effect) to 100 (complete control); read-out: Plant response rating, Barnyardgrass
parameter_measured: pest or weed control at 1000 g/ha (%)
Give the value in % but do not write % after it.

* Nc1nc(C2CC2)nc(C(=O)OCc2ccccc2)c1Br [Compound 22] | 80
* CNc1nc(C2CC2)nc(C(=O)OC)c1Br [Compound 5] | 50
* CCOC(=O)c1nc(C2CC2)nc(N)c1Br [Compound 1] | 80

For barnyardgrass (Echinochloa crus-galli), give the measured pest or weed control at 1000 g/ha of the entry COC(=O)c1nc(C(C)C)nc(N)c1Br [Compound 3]
0

For barnyardgrass (Echinochloa crus-galli), give the measured pest or weed control at 1000 g/ha of the entry Nc1nc(C2CC2)nc(C=O)c1Br [Compound 26]
60

For barnyardgrass (Echinochloa crus-galli), give the measured pest or weed control at 1000 g/ha of the entry COC(=O)c1nc(C2CC2)nc(N)c1I [Compound 7]
20

###

- Tested on: crabgrass (Digitaria sanguinalis)
- assay_overview: Test C pre/postemergence
- Type: in vivo
- condition_context: Preemergence, 125 g ai/ha; scale 0 to 100
In plain terms, low Plant response rating, Crabgrass, meaning strictly below 20, gives TRUE, and everything else gives FALSE.

Observe how each entry below is paired with its result.
- Nc1nc(C2CC2)nc(C(=O)O)c1Cl: TRUE
- CNN=Cc1nc(C2CC2)nc(N)c1Br: FALSE

Shifting focus to the compound that follows.
Regarding "CCCOC(=O)c1nc(C2CC2)nc(N)c1Br" , kindly confirm whether its Plant response rating, Crabgrass is beneath 20.
FALSE

###

- System: Surinam grass (Brachiaria decumbens)
- assay_overview: Test B pre/postemergence
- Assay type: in vivo
- condition_context: Preemergence, 500 g ai/ha; scale 0 to 100 (0 no effect, 100 complete control)
# Surinam Grass plant response rating values compiled below
Answer with a bare number; do not write a unit.

Sample answers from the record:
* CC(C)COC(=O)c1nc(C2CC2)nc(N)c1Br | 90
* CCOC(=O)C(Cl)c1nc(C2CC2)nc(N)c1Br (stereo not shown) | 60

For Surinam grass (Brachiaria decumbens), give the measured Surinam Grass plant response rating of the entry "COC(=O)c1nc(C2CC2)nc(N=CN(C)C)c1Br"
90

For Surinam grass (Brachiaria decumbens), give the measured Surinam Grass plant response rating of the entry "CCOC(=O)Cc1nc(-c2ccc(Cl)cc2)nc(N)c1Br"
0

For Surinam grass (Brachiaria decumbens), give the measured Surinam Grass plant response rating of the entry "CON=Cc1nc(C2CC2)nc(N)c1Br"
60

For Surinam grass (Brachiaria decumbens), give the measured Surinam Grass plant response rating of the entry "CCCOC(=O)c1nc(C2CC2)nc(N)c1Br"
90

For Surinam grass (Brachiaria decumbens), give the measured Surinam Grass plant response rating of the entry "COC(OC)c1nc(C2CC2)nc(N)c1F"
40

###

# Plant response rating (scale of 0 to 100), Pigweed values compiled below
- Tested on: pigweed (Amaranthus retroflexus)
- assay_overview: Test C pre/postemergence
- Type: in vivo
- condition_context: Postemergence, 16 g ai/ha
Answer with a bare number; do not write a unit.

- COC(=O)c1nc(-c2ccc(Cl)cc2)nc(N)c1Br: 95
- COC(=O)c1nc(C2CC2)nc(N=CN(C)C)c1Br: 50
- CCOC(=O)c1nc(-c2ccc(I)cc2)nc(N)c1Cl: 85

For pigweed (Amaranthus retroflexus), give the measured Plant response rating (scale of 0 to 100), Pigweed of the entry "CCCCOC(=O)c1nc(C2CC2)nc(N)c1Cl"
85

For pigweed (Amaranthus retroflexus), give the measured Plant response rating (scale of 0 to 100), Pigweed of the entry "Nc1nc(-c2ccc(Br)cc2)nc(C(=O)O)c1Br"
90
